Just for reference, patent US20220338471A1 is where these values come from.

- System Under Test: varroa mite proctolin receptor (VdProctR) (Varroa destructor)
- Assay Details: Receptor activity assay: luminescence in cells transiently transfected with varroa mite proctolin receptor
- Assay type: cell-based
- Setup Conditions: first set of experiments; varroa mite proctolin receptor; read-out: EC50
Square brackets hold non-standard residues; d marks the D form. Peptide text beside a SMILES is read from it. Hyp = O=C(O)[C@@H]1C[C@@H](O)CN1
Documented EC50 across a set of compounds

Compound	EC50 (nM)
CC(C)C[C@H](NC(=O)[C@H](Cc1ccc(O)cc1)NC(=O)[C@@H](N)CCCNC(=N)N)C(=O)N1CCC[C@@H]1C(=O)N[C@H](C(=O)O)[C@@H](C)O [Analog 2327, RYL[dP]T] (H-RYL[dP]T-OH)	549
CC(C)C[C@H](NC(=O)[C@H](Cc1ccc(O)cc1)NC(=O)[C@@H](N)CCCNC(=N)N)C(=O)N1C[C@H](O)C[C@H]1C(=O)N[C@H](C(=O)O)[C@@H](C)O [Analog 2334, RYL[HyP]T] (H-RYL[Hyp]T-OH; N-terminus assumed)	0.54

----------
Documented EC50 across a set of molecules
- System Under Test: varroa mite proctolin receptor (VdProctR) (Varroa destructor)
- Assay Details: Receptor activity assay: luminescence in cells transiently transfected with varroa mite proctolin receptor
- Format: cell-based
- Setup Conditions: EC50 (nM), second set of peptidomimetics; varroa mite proctolin receptor
Square brackets hold non-standard residues; d marks the D form. Peptide text beside a SMILES is read from it. Phe(4-Cl) = N[C@@H](Cc1ccc(Cl)cc1)C(=O)O; Phe(4-F) = N[C@@H](Cc1ccc(F)cc1)C(=O)O; Hyp = O=C(O)[C@@H]1C[C@@H](O)CN1
Metric Name: EC50 (nM)

Molecule	System Under Test	Metric Name	Unit Of Measure	Reported
CC(C)C[C@H](NC(=O)[C@H](Cc1ccc(F)cc1)NC(=O)[C@@H](N)CCCNC(=N)N)C(=O)N1C[C@H](O)C[C@H]1C(=O)N[C@H](C(=O)O)[C@@H](C)O [Analog 2441, R[Phe(4-F)]L[HyP]T] (H-R[Phe(4-F)]L[Hyp]T-OH; N-terminus and C-terminus assumed)	varroa mite proctolin receptor (VdProctR) (Varroa destructor)	EC50	nM	9.93
CC(=O)N[C@@H](CCCNC(=N)N)C(=O)N[C@@H](Cc1ccc(Cl)cc1)C(=O)N[C@@H](CC(C)C)C(=O)N1C[C@H](O)C[C@H]1C(=O)N[C@H](C(=O)O)[C@@H](C)O [Ac-2443, Ac-R[Phe(4-Cl)]L[HyP]T] (Ac-R[Phe(4-Cl)]L[Hyp]T-OH)	varroa mite proctolin receptor (VdProctR) (Varroa destructor)	EC50	nM	108
CC(C)C[C@H](NC(=O)[C@H](Cc1ccc(Cl)cc1)NC(=O)[C@@H](N)CCCNC(=N)N)C(=O)N1CCC[C@H]1C(=O)N[C@H](C(=O)O)[C@@H](C)O [Analog 2440, R[Phe(4-Cl)]LPT] (H-R[Phe(4-Cl)]LPT-OH)	varroa mite proctolin receptor (VdProctR) (Varroa destructor)	EC50	nM	7.03
CC(=O)N[C@@H](CCCNC(=N)N)C(=O)N[C@@H](Cc1ccc(F)cc1)C(=O)N[C@@H](CC(C)C)C(=O)N1C[C@H](O)C[C@H]1C(=O)N[C@H](C(=O)O)[C@@H](C)O [Ac-2441, Ac-R[Phe(4-F)]L[HyP]T] (Ac-R[Phe(4-F)]L[Hyp]T-OH)	varroa mite proctolin receptor (VdProctR) (Varroa destructor)	EC50	nM	471
CC(C)C[C@H](NC(=O)[C@H](Cc1ccc(F)cc1)NC(=O)[C@@H](N)CCCNC(=N)N)C(=O)N1CCC[C@H]1C(=O)N[C@H](C(=O)O)[C@@H](C)O [Analog 2438, R[Phe(4-F)]LPT] (H-R[Phe(4-F)]LPT-OH)	varroa mite proctolin receptor (VdProctR) (Varroa destructor)	EC50	nM	7.55

----------
- System Under Test: varroa mite proctolin receptor (VdProctR) (Varroa destructor)
- Assay Details: Receptor activity assay: luminescence in cells transiently transfected with varroa mite proctolin receptor
- Type: cell-based
- Setup Conditions: first set of experiments; EC50 relative to proctolin (0.22 nM)
Square brackets hold non-standard residues; d marks the D form. Peptide text beside a SMILES is read from it. Oic = O=C(O)[C@@H]1C[C@@H]2CCCC[C@@H]2N1; Hyp = O=C(O)[C@@H]1C[C@@H](O)CN1; β3hF = N[C@H](CC(=O)O)Cc1ccccc1; β3hL = CC(C)C[C@H](N)CC(=O)O; Aib = CC(C)(N)C(=O)O
Metric Name: Fold change

Compound	Metric Name	Reported
CC(C)C[C@H](NC(=O)[C@H](Cc1ccc(O)cc1)NC(=O)[C@@H](N)CCCNC(=N)N)C(=O)N1[C@H](C(=O)N[C@H](C(=O)O)[C@@H](C)O)C[C@@H]2CCCC[C@@H]21 [Analog 2336, RYL[Oic]T] (H-RYL[Oic]T-OH; N-terminus assumed)	Fold change	5.95
CC(C)C[C@H](NC(=O)[C@H](Cc1ccc(O)cc1)NC(=O)[C@@H](N)CCCNC(=N)N)C(=O)NC(C)(C)C(=O)N[C@H](C(=O)O)[C@@H](C)O [Analog 2335, RYL[Aib]T] (H-RYL[Aib]T-OH)	Fold change	10.09
CC(C)C[C@@H](NC(=O)[C@H](Cc1ccc(O)cc1)NC(=O)[C@@H](N)CCCNC(=N)N)C(=O)N1CCC[C@H]1C(=O)N[C@H](C(=O)O)[C@@H](C)O [Analog 2328, RY[dL]PT] (H-RY[dL]PT-OH)	Fold change	413.36
CC(C)C[C@H](NC(=O)[C@H](Cc1ccc(O)cc1)NC(=O)[C@@H](N)CCCNC(=N)N)C(=O)N1CCC[C@H]1C(=O)N[C@@H](C(=O)O)[C@H](C)O [Analog 2326, RYLP[dT]] (H-RYLP[dT]-OH; N-terminus assumed)	Fold change	13600.00
CC(C)C[C@H](NC(=O)[C@H](Cc1ccc(O)cc1)NC(=O)[C@H](N)CCCNC(=N)N)C(=O)N1CCC[C@H]1C(=O)N[C@H](C(=O)O)[C@@H](C)O [Analog 2330, [dR]YLPT] (H-[dR]YLPT-OH; N-terminus assumed)	Fold change	25.55
CC(C)C[C@H](NC(=O)[C@H](Cc1ccc(O)cc1)NC(=O)[C@@H](N)CCCNC(=N)N)C(=O)N1CCC[C@@H]1C(=O)N[C@H](C(=O)O)[C@@H](C)O [Analog 2327, RYL[dP]T] (H-RYL[dP]T-OH)	Fold change	2496.82
CC(C)C[C@H](NC(=O)[C@@H](Cc1ccc(O)cc1)NC(=O)[C@@H](N)CCCNC(=N)N)C(=O)N1C[C@H](O)C[C@H]1C(=O)N[C@H](C(=O)O)[C@@H](C)O [Analog 2337, R[dY]L[HyP]T] (H-R[dY]L[Hyp]T-OH; N-terminus assumed)	Fold change	163.00
CC(C)C[C@@H](CC(=O)N1CCC[C@H]1C(=O)N[C@H](C(=O)O)[C@@H](C)O)NC(=O)[C@H](Cc1ccc(O)cc1)NC(=O)[C@@H](N)CCCNC(=N)N [Analog 2332, RY[β3L]PT] (H-RY[β3hL]PT-OH)	Fold change	927.27
CC(C)C[C@H](NC(=O)C[C@H](Cc1ccccc1)NC(=O)[C@@H](N)CCCNC(=N)N)C(=O)N1C[C@H](O)C[C@H]1C(=O)N[C@H](C(=O)O)[C@@H](C)O [Analog 2338, R[β3F]L[HyP]T] (H-R[β3hF]L[Hyp]T-OH)	Fold change	119.59

----------
- System Under Test: varroa mite proctolin receptor (VdProctR) (Varroa destructor, UniProt A0A7T1TE40)
- Sequence (A0A7T1TE40 1-530): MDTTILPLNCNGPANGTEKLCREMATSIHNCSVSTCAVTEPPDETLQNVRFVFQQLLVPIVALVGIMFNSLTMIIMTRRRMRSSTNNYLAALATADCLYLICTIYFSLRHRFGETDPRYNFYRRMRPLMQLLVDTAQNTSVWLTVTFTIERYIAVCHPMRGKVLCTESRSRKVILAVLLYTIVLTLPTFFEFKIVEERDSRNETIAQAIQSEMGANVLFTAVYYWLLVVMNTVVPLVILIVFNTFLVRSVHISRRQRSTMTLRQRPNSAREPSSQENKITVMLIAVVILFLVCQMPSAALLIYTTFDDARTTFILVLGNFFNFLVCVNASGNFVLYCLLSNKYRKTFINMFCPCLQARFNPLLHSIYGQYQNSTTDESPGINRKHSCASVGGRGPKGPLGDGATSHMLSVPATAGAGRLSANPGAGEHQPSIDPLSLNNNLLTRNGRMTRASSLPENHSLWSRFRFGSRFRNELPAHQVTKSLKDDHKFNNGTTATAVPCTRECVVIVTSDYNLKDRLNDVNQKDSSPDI
- Assay Details: Receptor activity assay: luminescence in cells transiently transfected with varroa mite proctolin receptor
- Type: cell-based
- Setup Conditions: first set of experiments; varroa mite proctolin receptor; read-out: EC50
- Experimental: Approximately thirty hours after transfection, the cells were collected and preincubated with coelenterazine h for the functional assay. The ligands in serial dilutions were loaded into 96-well opaque plates. Cells treated with coelenterazine h were injected into each well on an Orion microplate luminometer (Berthold) luminescent plate reader. The luminescence was measured for 20 seconds immediately after the cell injections. […]
Square brackets hold non-standard residues; d marks the D form. Peptide text beside a SMILES is read from it. β3hF = N[C@H](CC(=O)O)Cc1ccccc1; β3hL = CC(C)C[C@H](N)CC(=O)O; β3hP = O=C(O)C[C@@H]1CCCN1
Documented EC50 across a set of molecules
Metric Name: EC50 (µM)

Molecule	Metric Name	Reported
CC(C)C[C@H](NC(=O)C[C@H](Cc1ccccc1)NC(=O)[C@@H](N)CCCNC(=N)N)C(=O)N1CCC[C@H]1C(=O)N[C@H](C(=O)O)[C@@H](C)O [Analog 2333, R[β3F]LPT] (H-R[β3hF]LPT-OH)	EC50	0.218
CC(C)C[C@H](NC(=O)[C@@H](Cc1ccc(O)cc1)NC(=O)[C@@H](N)CCCNC(=N)N)C(=O)N1CCC[C@H]1C(=O)N[C@H](C(=O)O)[C@@H](C)O [Analog 2329, R[dY]LPT] (H-R[dY]LPT-OH)	EC50	0.148
CC(C)C[C@H](NC(=O)[C@H](Cc1ccc(O)cc1)NC(=O)[C@@H](N)CCCNC(=N)N)C(=O)N1CCC[C@H]1CC(=O)N[C@H](C(=O)O)[C@@H](C)O [Analog 2331, RYL[β3P]T] (H-RYL[β3hP]T-OH; N-terminus assumed)	EC50	0.0044
CC(C)C[C@@H](NC(=O)[C@H](Cc1ccc(O)cc1)NC(=O)[C@@H](N)CCCNC(=N)N)C(=O)N1CCC[C@H]1C(=O)N[C@H](C(=O)O)[C@@H](C)O [Analog 2328, RY[dL]PT] (H-RY[dL]PT-OH)	EC50	0.0909
CC(C)C[C@H](NC(=O)[C@H](Cc1ccc(O)cc1)NC(=O)[C@@H](N)CCCNC(=N)N)C(=O)N1CCC[C@H]1C(=O)N[C@@H](C(=O)O)[C@H](C)O [Analog 2326, RYLP[dT]] (H-RYLP[dT]-OH; N-terminus assumed)	EC50	2.99
CC(C)C[C@@H](CC(=O)N1CCC[C@H]1C(=O)N[C@H](C(=O)O)[C@@H](C)O)NC(=O)[C@H](Cc1ccc(O)cc1)NC(=O)[C@@H](N)CCCNC(=N)N [Analog 2332, RY[β3L]PT] (H-RY[β3hL]PT-OH)	EC50	0.204
